molecular target: DNA-dependent protein kinase catalytic subunit (Homo sapiens, UniProt P78527); test: Inhibition of DNA dependent protein kinase isolated from HeLa cells
Sequence (P78527 whole entry): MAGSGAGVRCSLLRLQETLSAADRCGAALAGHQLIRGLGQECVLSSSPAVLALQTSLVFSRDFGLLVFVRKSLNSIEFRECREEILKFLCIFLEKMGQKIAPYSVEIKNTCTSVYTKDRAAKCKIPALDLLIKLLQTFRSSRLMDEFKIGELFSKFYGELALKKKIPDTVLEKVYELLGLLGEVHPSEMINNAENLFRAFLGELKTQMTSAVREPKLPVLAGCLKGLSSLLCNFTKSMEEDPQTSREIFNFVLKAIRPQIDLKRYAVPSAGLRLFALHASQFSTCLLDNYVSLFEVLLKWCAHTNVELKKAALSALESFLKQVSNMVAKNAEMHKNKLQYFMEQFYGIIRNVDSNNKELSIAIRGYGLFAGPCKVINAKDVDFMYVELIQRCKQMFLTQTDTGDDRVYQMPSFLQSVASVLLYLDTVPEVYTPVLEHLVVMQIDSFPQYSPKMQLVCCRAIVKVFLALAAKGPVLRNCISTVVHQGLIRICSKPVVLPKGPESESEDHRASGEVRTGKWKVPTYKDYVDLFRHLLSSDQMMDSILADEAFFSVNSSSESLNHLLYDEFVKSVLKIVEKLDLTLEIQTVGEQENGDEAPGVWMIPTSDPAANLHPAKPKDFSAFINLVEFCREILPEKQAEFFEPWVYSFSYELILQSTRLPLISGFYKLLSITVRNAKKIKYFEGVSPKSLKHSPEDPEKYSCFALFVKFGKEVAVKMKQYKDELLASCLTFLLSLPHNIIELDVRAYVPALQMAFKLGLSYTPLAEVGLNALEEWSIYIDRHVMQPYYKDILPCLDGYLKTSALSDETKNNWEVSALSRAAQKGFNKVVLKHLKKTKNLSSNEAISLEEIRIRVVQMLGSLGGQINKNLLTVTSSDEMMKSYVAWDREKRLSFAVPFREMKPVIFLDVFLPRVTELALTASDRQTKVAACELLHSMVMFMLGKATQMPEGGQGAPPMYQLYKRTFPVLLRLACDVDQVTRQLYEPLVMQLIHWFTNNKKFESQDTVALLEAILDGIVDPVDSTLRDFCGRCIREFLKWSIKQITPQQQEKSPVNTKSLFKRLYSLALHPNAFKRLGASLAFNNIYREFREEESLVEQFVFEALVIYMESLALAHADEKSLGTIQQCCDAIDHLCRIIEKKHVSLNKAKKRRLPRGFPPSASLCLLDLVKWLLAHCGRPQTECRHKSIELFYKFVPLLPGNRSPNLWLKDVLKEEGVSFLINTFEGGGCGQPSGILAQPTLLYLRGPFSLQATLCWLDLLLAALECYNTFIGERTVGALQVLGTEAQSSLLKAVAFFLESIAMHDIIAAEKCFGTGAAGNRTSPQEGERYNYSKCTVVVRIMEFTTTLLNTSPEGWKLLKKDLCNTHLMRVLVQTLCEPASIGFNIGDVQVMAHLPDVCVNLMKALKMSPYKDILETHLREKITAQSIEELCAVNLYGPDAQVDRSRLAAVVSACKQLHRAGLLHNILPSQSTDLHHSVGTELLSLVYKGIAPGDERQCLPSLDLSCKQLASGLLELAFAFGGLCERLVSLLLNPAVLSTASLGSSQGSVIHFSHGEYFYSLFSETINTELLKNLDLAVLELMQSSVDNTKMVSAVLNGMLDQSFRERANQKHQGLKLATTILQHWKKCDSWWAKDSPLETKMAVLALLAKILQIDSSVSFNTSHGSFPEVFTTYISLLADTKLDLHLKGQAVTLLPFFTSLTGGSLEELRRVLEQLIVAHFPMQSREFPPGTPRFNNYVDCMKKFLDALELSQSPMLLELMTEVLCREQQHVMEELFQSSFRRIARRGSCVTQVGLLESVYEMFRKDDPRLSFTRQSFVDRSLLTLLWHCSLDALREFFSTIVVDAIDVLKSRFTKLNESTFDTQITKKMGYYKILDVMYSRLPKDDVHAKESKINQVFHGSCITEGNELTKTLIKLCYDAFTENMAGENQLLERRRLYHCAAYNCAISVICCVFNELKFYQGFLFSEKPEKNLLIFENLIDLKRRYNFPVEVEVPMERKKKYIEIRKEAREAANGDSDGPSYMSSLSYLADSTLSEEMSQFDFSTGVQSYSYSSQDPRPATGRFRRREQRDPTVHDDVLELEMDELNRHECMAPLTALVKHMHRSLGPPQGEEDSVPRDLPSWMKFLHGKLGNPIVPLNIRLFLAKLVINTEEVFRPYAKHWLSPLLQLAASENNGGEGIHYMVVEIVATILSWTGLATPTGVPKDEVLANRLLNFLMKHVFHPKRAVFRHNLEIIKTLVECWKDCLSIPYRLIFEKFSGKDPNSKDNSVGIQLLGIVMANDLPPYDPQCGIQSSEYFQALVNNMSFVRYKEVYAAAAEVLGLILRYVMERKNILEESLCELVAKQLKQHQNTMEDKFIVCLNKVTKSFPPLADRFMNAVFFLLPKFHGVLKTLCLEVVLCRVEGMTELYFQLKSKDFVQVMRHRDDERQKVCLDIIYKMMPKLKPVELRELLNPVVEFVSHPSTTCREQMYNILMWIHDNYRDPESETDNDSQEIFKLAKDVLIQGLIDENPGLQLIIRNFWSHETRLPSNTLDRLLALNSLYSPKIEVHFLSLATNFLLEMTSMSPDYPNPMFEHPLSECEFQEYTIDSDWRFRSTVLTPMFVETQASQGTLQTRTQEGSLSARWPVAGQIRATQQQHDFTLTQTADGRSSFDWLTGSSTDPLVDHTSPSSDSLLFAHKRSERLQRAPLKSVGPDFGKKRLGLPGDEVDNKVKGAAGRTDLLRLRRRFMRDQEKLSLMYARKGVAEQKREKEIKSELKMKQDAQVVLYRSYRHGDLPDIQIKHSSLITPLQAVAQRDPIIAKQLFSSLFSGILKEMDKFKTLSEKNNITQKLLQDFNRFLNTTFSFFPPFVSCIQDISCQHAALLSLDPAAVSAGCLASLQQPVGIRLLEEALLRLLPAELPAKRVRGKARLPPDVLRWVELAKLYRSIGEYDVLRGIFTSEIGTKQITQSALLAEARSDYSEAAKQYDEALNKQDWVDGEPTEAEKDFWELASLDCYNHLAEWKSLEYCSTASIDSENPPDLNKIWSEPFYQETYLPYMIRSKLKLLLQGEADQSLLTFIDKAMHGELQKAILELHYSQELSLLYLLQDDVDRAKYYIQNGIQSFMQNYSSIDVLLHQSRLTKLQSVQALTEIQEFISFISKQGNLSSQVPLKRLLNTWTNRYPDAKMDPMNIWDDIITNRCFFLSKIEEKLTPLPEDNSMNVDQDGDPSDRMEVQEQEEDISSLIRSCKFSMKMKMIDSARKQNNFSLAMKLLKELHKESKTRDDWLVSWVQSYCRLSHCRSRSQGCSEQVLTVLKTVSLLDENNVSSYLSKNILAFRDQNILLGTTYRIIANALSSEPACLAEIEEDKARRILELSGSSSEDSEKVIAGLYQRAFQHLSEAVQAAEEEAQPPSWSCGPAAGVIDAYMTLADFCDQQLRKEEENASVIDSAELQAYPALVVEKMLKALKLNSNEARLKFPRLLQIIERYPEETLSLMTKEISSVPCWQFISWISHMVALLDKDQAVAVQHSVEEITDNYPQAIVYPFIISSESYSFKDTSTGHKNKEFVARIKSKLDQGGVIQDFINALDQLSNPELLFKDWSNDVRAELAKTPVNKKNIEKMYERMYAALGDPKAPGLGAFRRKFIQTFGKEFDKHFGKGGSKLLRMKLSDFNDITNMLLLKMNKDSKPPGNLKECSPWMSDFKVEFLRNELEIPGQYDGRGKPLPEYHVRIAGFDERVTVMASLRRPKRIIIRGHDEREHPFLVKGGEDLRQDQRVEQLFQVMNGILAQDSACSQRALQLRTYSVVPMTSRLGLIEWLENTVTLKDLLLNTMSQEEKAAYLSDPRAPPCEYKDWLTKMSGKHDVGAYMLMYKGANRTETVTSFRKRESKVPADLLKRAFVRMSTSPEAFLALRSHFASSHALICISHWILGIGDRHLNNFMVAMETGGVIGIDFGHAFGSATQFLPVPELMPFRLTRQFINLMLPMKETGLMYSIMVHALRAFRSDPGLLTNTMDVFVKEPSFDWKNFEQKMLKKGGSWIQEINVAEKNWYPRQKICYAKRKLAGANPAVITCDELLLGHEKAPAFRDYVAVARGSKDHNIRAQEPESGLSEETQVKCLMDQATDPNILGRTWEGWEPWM
pIC50: −log10 of the molar value.
quantity: pIC50

Illustrative cases are given below, each with its answer.
O=c1cc(N2C[C@H]3C[C@@H]2CO3)oc2c1ccc1ccccc12; 5.50
O=c1cc(N2CCSCC2)nc2c3ccccc3ccn12; 5.77

A: COc1cccc2c(=O)cc(N3CCOCC3)oc12
B: O=c1cc(N2CCOCC2)oc2c3c(ccc12)CCCC3
C: O=c1cc(N2CCCCC2)oc2c(-c3ccccc3)cccc12
Rank entries according to their pIC50, from the largest number down. Give the labels in the order requested.
B, A, C

###

Parameter IC50: see the listing below.
biological target: DNA-dependent protein kinase catalytic subunit (Homo sapiens, UniProt P78527); assay: Inhibition of DNA dependent protein kinase isolated from HeLa cells

Illustrative cases are given below, each with its answer.
Cc1cccc2c(N3CCOCC3)cc(=O)oc12; 8.05 µM
O=c1cc(NCC(O)c2cccc(O)c2)nc2c3ccccc3ccn12 (stereo not drawn); > 10 µM
O=c1cc(N2CCOCC2)nc2ccccn12; 2 µM
O=c1cc(N2CCCC2)nc2c3ccccc3ccn12; 6.68 µM
COc1ccc2c(=O)cc(N3CCOCC3)oc2c1; 0.95 µM

IC50 reported for this molecule O=c1cc(N2CCCC2)oc2c1ccc1ccccc12 : 6.17 µM

IC50 reported for this molecule CC1CN(c2cc(=O)c3ccc4ccccc4c3o2)CC(C)O1 (stereo not drawn) : 4.14 µM
